Target: T1, human ASGR-1 mutant construct H203 (human, UniProt P07306 1-291)
T1 construct: Arg/Glu scanning: non-arginine residues were changed to arginine; Transiently expressed on CHO-S cells
T1 sequence: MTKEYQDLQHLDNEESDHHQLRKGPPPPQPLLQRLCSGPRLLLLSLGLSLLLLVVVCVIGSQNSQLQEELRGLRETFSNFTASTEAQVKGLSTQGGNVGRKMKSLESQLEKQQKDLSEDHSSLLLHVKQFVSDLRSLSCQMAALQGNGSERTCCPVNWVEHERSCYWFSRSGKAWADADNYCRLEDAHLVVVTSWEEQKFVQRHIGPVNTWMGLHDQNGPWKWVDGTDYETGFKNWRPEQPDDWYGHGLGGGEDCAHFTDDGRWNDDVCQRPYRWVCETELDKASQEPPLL
Assay: FACS, transfected CHO-S cells, mAb 5 ug/ml
Use 1 when the recorded FACS Binding Geomean is no lower than 10000; use -1 when it is lower.

Hi, just wondering whether 194C1 (antibody, V domains shown, mAb) VH: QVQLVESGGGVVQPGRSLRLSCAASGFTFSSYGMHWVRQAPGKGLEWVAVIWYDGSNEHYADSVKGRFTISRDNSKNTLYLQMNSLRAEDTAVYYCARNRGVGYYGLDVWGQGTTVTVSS VL: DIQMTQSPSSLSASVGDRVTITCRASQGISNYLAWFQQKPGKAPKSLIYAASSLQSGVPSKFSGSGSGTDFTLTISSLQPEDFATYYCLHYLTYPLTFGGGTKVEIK shows FACS Binding Geomean of 10000 or higher.
1

Now consider 184E7 (antibody, V domains shown, mAb) VH: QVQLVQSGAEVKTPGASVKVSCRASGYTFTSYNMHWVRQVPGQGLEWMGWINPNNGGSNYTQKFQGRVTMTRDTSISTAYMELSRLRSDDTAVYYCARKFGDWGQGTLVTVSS VL: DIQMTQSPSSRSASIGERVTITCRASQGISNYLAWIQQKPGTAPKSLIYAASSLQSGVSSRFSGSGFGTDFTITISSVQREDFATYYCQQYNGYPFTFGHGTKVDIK .
1

Also 48B12 (antibody, V domains shown, mAb) VH: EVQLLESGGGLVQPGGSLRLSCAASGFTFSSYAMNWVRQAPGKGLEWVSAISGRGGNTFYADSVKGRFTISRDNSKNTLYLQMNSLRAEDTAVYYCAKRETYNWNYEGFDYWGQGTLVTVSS VL: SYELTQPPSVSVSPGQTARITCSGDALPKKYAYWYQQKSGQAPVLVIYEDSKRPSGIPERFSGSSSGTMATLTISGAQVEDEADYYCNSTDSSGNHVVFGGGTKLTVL ?
1

Item: 218G4 (antibody, V domains shown, mAb) VH: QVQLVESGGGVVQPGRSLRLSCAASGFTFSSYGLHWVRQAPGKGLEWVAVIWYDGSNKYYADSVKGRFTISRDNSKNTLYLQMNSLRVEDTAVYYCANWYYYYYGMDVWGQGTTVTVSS VL: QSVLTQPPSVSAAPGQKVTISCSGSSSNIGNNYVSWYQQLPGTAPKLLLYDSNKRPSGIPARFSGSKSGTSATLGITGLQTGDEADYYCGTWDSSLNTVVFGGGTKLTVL
-1
